The reported numbers originate from a melting point compilation (Tetko et al.).

Field: melting point. Provide a value for each of the compounds that follow.

Dear reader, for each entry below, please note its melting point.
1. Cc1cc(C=O)ccc1[N+](=O)[O-]
2. COc1ccc(NS(=O)(=O)c2ccc(N)cc2)cc1OC

1: 65 to 67 °C; 2: 171 to 173 °C

* * *

Field: melting point. Provide a value for each of the compounds that follow.

compound: COC(=O)c1c(N)sc2c1CCCCC2
melting point: 94 to 98 °C
--
compound: CCN(CC)Cc1ccc(C(=O)O)cc1
melting point: 154 to 156 °C
--
compound: Cc1sc([N+](=O)[O-])cc1[N+](=O)[O-]
melting point: 81 to 83 °C
--
compound: CN(C)C=C(C#N)S(C)(=O)=O
melting point: 129 to 131 °C
--
compound: O=C(O)c1csc(S(=O)(=O)N2CCOCC2)c1
melting point: 226 to 228 °C

Dear reader, for each entry below, please note its melting point.
1. CC(C)Oc1ccc(C(N)=S)cc1
2. O=C(O)c1cc(Cl)ccc1OC1CCCC1
3. CCN(c1ccccc1)S(=O)(=O)c1ccc(NN)nc1
4. CC(C)(C)c1ccc(C(O)CN)cc1 (configuration not stated)
5. CC(C)NC(=O)c1cn[nH]c1N

1: 152 to 154 °C; 2: 95 to 97 °C; 3: 175 to 177 °C; 4: 125 to 127 °C; 5: 179 to 181 °C

Dear reader, for each entry below, please note its melting point.
1. O=S1(=O)CCNCN1
2. COC(=O)c1cccc(C(N)=S)c1
3. CN(CC(=O)Nc1ccccc1Cl)C(=O)CCl
4. O=C(O)c1ccc(Oc2ccccc2Br)nc1
5. O=C1c2ccccc2C(=O)N1Cc1ccnc2ccnn12
6. CS(=O)(=O)N1CCCC1C(=O)O (configuration not stated)
7. Cc1ccc(C(=O)C(=O)c2ccccc2)cc1C
8. FC(F)n1ccnc1COc1ccc(Br)cc1

1. 143 to 145 °C
2. 137 to 139 °C
3. 115 to 117 °C
4. 182 to 184 °C
5. 274 to 276 °C
6. 52 to 54 °C
7. 63 to 65 °C
8. 61 to 63 °C

* * *

value type: melting point

Past entries and their recorded results:
compound: NCc1cccc(NC(=O)C2CCCC2)c1
melting point: 86 to 88 °C
--
compound: CC(C(=O)O)C1CCOCC1 (configuration not stated)
melting point: 39 to 41 °C
--
compound: Cc1n[nH]c(C)c1CC(=O)O
melting point: 151 to 155 °C
--
compound: N#Cc1ccc(Oc2ccccc2C(F)(F)F)nc1
melting point: 80 to 82 °C
--
compound: Nc1cnn(-c2ccccn2)c1
melting point: 79 to 81 °C

Dear reader, for each entry below, please note its melting point.
1. NNC(=O)Nc1cccc(Cl)c1
2. O=C(O)C1CCCN(S(=O)(=O)Cc2ccccc2)C1 (configuration not stated)

1. 107 to 109 °C
2. 128 to 130 °C

* * *

Field: melting point. Provide a value for each of the compounds that follow.

compound: NC(=S)COc1ccc(Cl)cc1
melting point: 107 to 111 °C
//
compound: CC(C)(C)c1ccc(S(N)(=O)=O)s1
melting point: 80 to 82 °C
//
compound: NCC1CC(O)CN1Cc1ccccc1 (stereo unspecified)
melting point: 54 to 56 °C

Dear reader, for each entry below, please note its melting point.
1. O=C(O)C1CCSCC1
2. CC(=O)C12CC3CC(C1)CC(C(=O)O)(C3)C2
3. CC(=O)c1ccc(NC(=O)NC2CC2)cc1
4. N#Cc1ccc(Cl)cc1NC1CCCCC1
5. CNC(=O)c1ccc(N)cc1Cl

1: 109 to 111 °C; 2: 123 to 125 °C; 3: 161 to 163 °C; 4: 74 to 76 °C; 5: 147 to 149 °C

Dear reader, for each entry below, please note its melting point.
1. CN(C)C=C1C(=O)CCC1=O
2. O=C(O)CCc1ccc2ccccc2n1
3. O=C(O)CS(=O)(=O)CC(=O)Nc1ccc(Br)cc1
4. Cn1cc([N+](=O)[O-])c(C(=O)O)n1
5. O=C(O)C1CCN(C(=O)C2CC2)CC1

1: 89 to 91 °C; 2: 107 to 109 °C; 3: 207 to 209 °C; 4: 162 to 164 °C; 5: 211 to 213 °C

Dear reader, for each entry below, please note its melting point.
1. CC(C)(C)Sc1ccc(C(N)=S)nc1
2. Cc1ccc(Br)c(S(=O)(=O)Cl)c1
3. CCCOC(=O)c1ccc(S(=O)(=O)Cl)cc1
4. CC(=O)N1CCN(C(=O)CCl)CC1
5. CC(C)(C)C(=O)NC1CCCNC1 (stereo unspecified)
6. O=C(O)CCCNS(=O)(=O)c1cccc(C(F)(F)F)c1

1: 129 to 131 °C; 2: 57 to 59 °C; 3: 36 to 38 °C; 4: 89 to 91 °C; 5: 99 to 101 °C; 6: 152 to 155 °C
